Data origin, for the record: patent US20260356851A1

Target: pERK1/2 (Thr202/Tyr204), NCI-1H358 (KRAS G12C) (Homo sapiens, UniProt P01116, G12C)
Construct: pERK1/2 HTRF read-out
Sequence (P01116 1-188 isoform P01116-2 G12C): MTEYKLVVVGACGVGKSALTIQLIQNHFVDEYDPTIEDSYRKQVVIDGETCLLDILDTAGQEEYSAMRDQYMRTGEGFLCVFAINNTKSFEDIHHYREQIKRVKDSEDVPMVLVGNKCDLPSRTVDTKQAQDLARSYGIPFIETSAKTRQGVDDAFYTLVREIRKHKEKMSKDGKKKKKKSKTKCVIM
Assay: Assay of intracellular pERK1/2 (Thr202/Tyr204) phosphorylation in NCI-H358 cells (KRAS G12C)
Assay type: cell-based
Conditions: pERK1/2, 2 days, read-out: NCI-H358 (KRAS G12C) IC50
pIC50: −log10 of the molar value.
Categories are assigned from the measured pIC50 using these intervals: L = under 8, M = from 8 up to 9, H = 9 and over

Solved entries (count: 3):
CC(c1cccnc1N)N1c2nc(OC[C@@]34CCCN3C[C@H](F)C4)nc3c(F)c(-c4cc(O)cc(Cl)c4C#N)nc(c23)OC[C@@H]1C (stereo partly drawn) :: L
CC(c1cccnc1N)N1CCOc2nc(-c3cc(N)cc(Cl)c3C3CC3)c(F)c3nc(OC[C@@]45CCCN4C[C@H](F)C5)nc1c23 (single isomer, unassigned) [Compound 75] :: M
[2H]C1([2H])CC[C@@]2(COc3nc4c5c(nc(-c6cc(N)c(F)c(Cl)c6C(F)(F)F)c(F)c5n3)OC([2H])([2H])C([2H])([2H])N4[C@H](C)c3cccnc3N)C[C@@H](F)CN12 (single isomer, unassigned) :: H

Ask: # bin lookup: classify Cc1cc(N)cc(-c2nc3c4c(nc(OCC56CCCN5CCC6)nc4c2F)N(C(C)c2cccnc2N)CCO3)c1C(F)(F)F (stereo not drawn) by its pIC50
Result: M

Ask: Assign a bin to CC(c1cccnc1N)N1CCOc2nc(-c3cc(N)cc(Cl)c3C3CC3)c(F)c3nc(OCC4(C#N)CC4)nc1c23 (stereo not drawn)
Result: L

Ask: For CC(c1cccnc1N)N1CCOc2nc(-c3cc(N)c(F)c(Cl)c3C(F)(F)F)c(F)c3nc(OC[C@@]45CCCN4C/C(=C\F)C5)nc1c23 (stereo partly drawn) , which pIC50 bin applies?
Result: H
